experiment: HCV replicon assay (luciferase reporter, ET cell line); assay type: cell-based; conditions: Hepatitis C virus, HCV replicon luciferase activity in ET cells
Here the recorded inhibition at 10 µM is given for each entry.
Kindly answer with a numeric value in %, unit omitted.

[
  {
    "Compound": "O=C(NCc1cccs1)c1nc2c(C(F)(F)F)cc(C3=CCCCO3)cn2c1Cl",
    "Readout Unit": "%",
    "inhibition at 10 µM": 98.8
  }
]

The recorded inhibition at 10 µM for entry "Cc1c(C(=O)NCc2cccs2)nn2c(C)cc(-c3ccccc3)cc12" equals 55.3

The recorded inhibition at 10 µM for entry "O=C(NCc1cccs1)c1nc2c(C(F)(F)F)cc(-c3ccsc3)cn2c1Cl" equals 97.3

The recorded inhibition at 10 µM for entry CN(C)Cc1cccc(-c2cc(C(F)(F)F)c3nc(C(=O)N4CCC(c5ccc(F)cc5)C4)c(Cl)n3c2)c1 (stereo not shown) equals 97.8

The recorded inhibition at 10 µM for entry Cc1noc(C2CCN(C(=O)c3nc4c(C(F)(F)F)cc(-c5cn[nH]c5)cn4c3Cl)C2)n1 (stereo not shown) equals 72

###

assay: HCV replicon assay (luciferase reporter, ET cell line); type: cell-based; settings: Hepatitis C virus, HCV replicon luciferase activity in ET cells
Assay Metric: inhibition at 10 µM (%)
Kindly answer with a numeric value in %, unit omitted.

Known inhibition at 10 µM results, listed for orientation:
[
  {
    "Molecule": "O=C(c1nc2c(C(F)(F)F)cc(-c3ccoc3)cn2c1Cl)N1CCN(c2cnccn2)CC1 [Compound 537]",
    "Experimental Result": 61
  },
  {
    "Molecule": "O=C(O)Cc1c(C(=O)NCc2cccs2)nc2c(C(F)(F)F)cc(-c3ccoc3)cn12 [Compound 226]",
    "Experimental Result": 98.8
  },
  {
    "Molecule": "O=C(NCc1nccs1)c1nc2c(C(F)(F)F)cc(-c3ccco3)cn2c1Cl [Compound 182]",
    "Experimental Result": 80.8
  }
]

The recorded inhibition at 10 µM for entry O=C(NCc1cccs1)c1nc2c(C(F)(F)F)cc(C3=CCCCC3)cn2c1Cl [Compound 282] equals 97.6

The recorded inhibition at 10 µM for entry CCn1c(C(=O)N2CCC(c3ccc(F)cc3)C2)nc2c(C(F)(F)F)cc(-c3ccoc3)cc21 (stereo not shown) [Compound 352] equals 49.8

The recorded inhibition at 10 µM for entry O=C(c1nc2c(C(F)(F)F)cc(-c3ccoc3)cn2c1Cl)N1CC=C(c2ccccc2F)C1 [Compound 424] equals 99.7

###

test: HCV replicon assay (luciferase reporter, ET cell line); format: cell-based; details: Hepatitis C virus, HCV replicon luciferase activity in ET cells
Here the recorded inhibition at 10 µM is given for each entry.
Kindly answer with a numeric value in %, unit omitted.

Known inhibition at 10 µM results, listed for orientation:
[
  {
    "Compound": "N#Cc1cc(-c2ccccc2)cc2cc(C(=O)NCc3cccs3)nn12",
    "inhibition at 10 µM (%)": 52.2
  },
  {
    "Compound": "O=C(NCCc1ccccc1)c1cc2cc(-c3ccccc3)cc(I)n2n1",
    "inhibition at 10 µM (%)": 32.3
  }
]

The recorded inhibition at 10 µM for entry "COc1ccccc1C1CCN(C(=O)c2nc3c(C(F)(F)F)cc(-c4ccoc4)cn3c2Cl)CC1" equals 64.8

The recorded inhibition at 10 µM for entry O=C(c1cn2cc(-c3cn[nH]c3)cc(C(F)(F)F)c2n1)N1CCC(c2ccc(F)cc2)C1 (centres unmarked) equals 76.6

The recorded inhibition at 10 µM for entry "O=C(c1nc2c(C(F)(F)F)cc(-c3ccoc3)cn2c1Cl)N1CC=C(OS(=O)(=O)C(F)(F)F)CC1" equals 79.1

The recorded inhibition at 10 µM for entry O=C(c1nc2c(C(F)(F)F)cc(-c3ccoc3)cn2c1Cl)N1CCC(c2cccnc2)C1 (centres unmarked) equals 97.6

The recorded inhibition at 10 µM for entry "O=C(c1nc2c(C(F)(F)F)cc(-c3cn[nH]c3)cn2c1Br)N1CCN(c2nccs2)CC1" equals 68.7

The recorded inhibition at 10 µM for entry O=C(c1nc2c(C(F)(F)F)cc(-c3cn[nH]c3)cn2c1Cl)N1CCC(c2cccs2)C1 (centres unmarked) equals 97.6

###

assay: HCV replicon assay (luciferase reporter, ET cell line); assay type: cell-based; details: Hepatitis C virus, HCV replicon luciferase activity in ET cells
Assay Metric: inhibition at 10 µM (%)
Kindly answer with a numeric value in %, unit omitted.

Known inhibition at 10 µM results, listed for orientation:
[
  {
    "Compound": "O=C(c1nc2c(C(F)(F)F)cc(-c3ccoc3)cn2c1Cl)N1CCC(c2ccccc2Cl)CC1 [Compound 541]",
    "Assay Metric": "inhibition at 10 µM",
    "Readout Unit": "%",
    "Experimental Result": 89.7
  },
  {
    "Compound": "CC(=O)c1ccc(C2=CCN(C(=O)c3nc4c(C(F)(F)F)cc(-c5ccoc5)cn4c3Cl)CC2)s1 [Compound 585]",
    "Assay Metric": "inhibition at 10 µM",
    "Readout Unit": "%",
    "Experimental Result": 93.2
  },
  {
    "Compound": "CC(C)(C)OC(=O)N[C@@H]1CCN(C(=O)c2nc3c(C(F)(F)F)cc(-c4ccoc4)cn3c2Cl)C1 [Compound 478]",
    "Assay Metric": "inhibition at 10 µM",
    "Readout Unit": "%",
    "Experimental Result": 4.9
  },
  {
    "Compound": "CN(C)CCOc1ccc(CNC(=O)c2nc3c(C(F)(F)F)cc(-c4ccco4)cn3c2Cl)cc1 [Compound 214]",
    "Assay Metric": "inhibition at 10 µM",
    "Readout Unit": "%",
    "Experimental Result": 49
  }
]

The recorded inhibition at 10 µM for entry O=C(NC1CN(S(=O)(=O)c2ccccc2)C1)c1nc2c(C(F)(F)F)cc(-c3ccoc3)cn2c1Cl [Compound 511] equals 98.6

The recorded inhibition at 10 µM for entry O=C(c1nc2c(C(F)(F)F)cc(-c3cn[nH]c3)cn2c1Cl)N1CC=C(c2cscn2)C1 [Compound 445] equals 93.9

The recorded inhibition at 10 µM for entry O=C(NCc1ccc(F)cc1)c1nc2c(C(F)(F)F)cc(-c3ccoc3)cn2c1Cl [Compound 404] equals 83.9

The recorded inhibition at 10 µM for entry O=C(c1nc2c(C(F)(F)F)cc(-c3ccoc3)cn2c1Cl)N1CC=C(c2ccc(F)nc2F)CC1 [Compound 617] equals 95

The recorded inhibition at 10 µM for entry O=C(NCc1cccs1)c1nc2c(C(F)(F)F)cc(-c3ccccc3F)cn2c1Cl [Compound 197] equals 90.6

The recorded inhibition at 10 µM for entry O=C(Cc1ccccc1)NCc1nc2c(C(F)(F)F)cc(-c3ccoc3)cn2c1Cl [Compound 389] equals 45.3

###

assay: HCV replicon assay (luciferase reporter, ET cell line); assay type: cell-based; details: Hepatitis C virus, HCV replicon luciferase activity in ET cells
inhibition at 10 µM vs 90%: at or above is T, below is F.

Answered examples (5):
[
  {
    "Compound": "N#Cc1ccccc1C1CCN(C(=O)c2nc3c(C(F)(F)F)cc(-c4ccoc4)cn3c2Cl)CC1",
    "Cat": "T"
  },
  {
    "Compound": "O=C(c1nc2c(C(F)(F)F)cc(-c3ccoc3)cn2c1Cl)N1CC=C(c2ccoc2)CC1",
    "Cat": "T"
  },
  {
    "Compound": "CC(C)c1cc(-c2ccccc2)cn2c(Br)c(C(=O)N3CCC(c4cccc(F)c4)C3)nc12 (stereo not shown)",
    "Cat": "F"
  },
  {
    "Compound": "CN(C)Cc1c(C(=O)NCc2cccs2)nc2c(C(F)(F)F)cc(-c3cccc(F)c3)cn12",
    "Cat": "F"
  },
  {
    "Compound": "O=C(c1nc2c(C(F)(F)F)cc(-c3ccoc3)cn2c1Cl)N1CCC(c2ccccc2)=N1",
    "Cat": "T"
  }
]

With those in mind, consider the next compound.
Enquiry: Reported inhibition at 10 µM at or above 90%? O=C(c1nc2c(C(F)(F)F)cc(-c3ccoc3)cn2c1Cl)N1CCC(N2CCCCC2)C1 (stereo not shown)
Return: F

###

assay: HCV replicon assay (luciferase reporter, ET cell line); type: cell-based; settings: Hepatitis C virus, HCV replicon luciferase activity in ET cells
Here the recorded inhibition at 10 µM is given for each entry.
Kindly answer with a numeric value in %, unit omitted.

Known inhibition at 10 µM results, listed for orientation:
[
  {
    "Molecule": "C=C(C)c1cc(-c2ccccc2)cn2c(Cl)c(C(=O)NCc3cccs3)nc12",
    "inhibition at 10 µM (%)": 77.3
  },
  {
    "Molecule": "O=C(c1nc2c(C(F)(F)F)cc(-c3c[nH]c4ccccc34)cn2c1Cl)N1CCC(c2cccc(F)c2)C1 (stereo not drawn)",
    "inhibition at 10 µM (%)": 23.4
  },
  {
    "Molecule": "O=C(NCc1ccc(Cl)s1)c1nn2c(C(F)(F)F)cc(-c3ccccc3)cc2c1Cl",
    "inhibition at 10 µM (%)": 46.1
  },
  {
    "Molecule": "CCn1c(C(=O)N2CCC(c3ccc(F)cc3)C2)nc2cc(-c3ccoc3)cc(C(F)(F)F)c21 (stereo not drawn)",
    "inhibition at 10 µM (%)": 3.5
  },
  {
    "Molecule": "O=S(=O)(Cc1ccccc1)NCc1cn2cc(-c3ccoc3)cc(C(F)(F)F)c2n1",
    "inhibition at 10 µM (%)": 94.2
  }
]

The recorded inhibition at 10 µM for entry "O=C(NCc1ccccc1)NCc1cn2cc(-c3ccoc3)cc(C(F)(F)F)c2n1" equals 99.9

The recorded inhibition at 10 µM for entry "O=C(NCc1cccs1)c1cc2cc(-c3ccco3)cc(C(F)(F)Cl)n2n1" equals 99.8

The recorded inhibition at 10 µM for entry O=C1OC(c2ccccc2)CN1Cc1cn2cc(-c3ccoc3)cc(C(F)(F)F)c2n1 (stereo not drawn) equals 99.9
